experiment: qHTS assay to identify small molecule agonists of the hypoxia (HIF-1) signaling pathway - cell viability counter screen (AID 1224844); conditions: HRE-bla ME-180 viability, CellTiter-Glo luminescence, 17 h; series mostly up to 76.8 µM; also: nearly all actives have a fitted effect of over 50% in size
Records with an inconclusive call do not appear. Active and inactive are the calls of the source. Calls follow the shape of the full dose curve.
Please answer using one outcome listed in active, inactive

* S=C1NC=NC2N=CNC12 (stereo unspecified) | inactive
* CCCCC/C=C\C=C\C(=O)OCC | active
* COc1cc(OC)nc(NC(=O)NS(=O)(=O)Nc2ccccc2C(=O)N(C)C)n1 | inactive

Given `C/C=C/C(=O)OCC(C)C` , state the outcome it received in this test.
inactive

Given `C=Cc1ccc(O)c(OC)c1` , state the outcome it received in this test.
inactive

Given `CN1CCN(CCCN2c3ccccc3Sc3ccc(C(F)(F)F)cc32)CC1` , state the outcome it received in this test.
active

Given `Cc1c(Cl)c(=O)oc2cc(O)ccc12` , state the outcome it received in this test.
inactive

Given `CCC(=O)OC/C=C(\C)CCC=C(C)C` , state the outcome it received in this test.
inactive

Given `N#Cc1nc(Cl)c(Cl)c(Cl)c1Cl` , state the outcome it received in this test.
active

Given `Cc1cc(F)ccc1-c1cc(N2CC[C@@H](O)[C@H]2CO)ncc1N(C)C(=O)C(C)(C)c1cc(C(F)(F)F)cc(C(F)(F)F)c1` , state the outcome it received in this test.
active

Given CC(C)(C)c1ccc(OC2CCCCC2O)cc1 (stereo unspecified) , state the outcome it received in this test.
inactive

====

biological target: Estrogen receptor (Homo sapiens); experiment: qHTS assay to identify small molecule agonists of the estrogen receptor alpha (ER-alpha) signaling pathway using the BG1 cell line (AID 743079); conditions: BG1Luc4E2 cells, ERE-luciferase agonist, 22 h; series mostly up to 70.3 µM; also: nearly all actives have a fitted effect of over 20% in size
Records with an inconclusive call do not appear. Active and inactive are the calls of the source. The call rests on the fitted dose curve; in most records, active means well fitted activation curve with a large enough effect in the repeat runs; inconclusive means weak or mixed curves, or effect the other way; inactive means no such curve, though single readings can be large or run the other way.
result_type: outcome

• O=C1C2CC3CC1CC(O)(C3)C2 = inactive
• COC1[C@@H](O[C@@H]2O[C@H](C)[C@@H](O[C@H]3C[C@@](C)(O)[C@H](OC(=O)CC(C)C)[C@H](C)O3)[C@H](N(C)C)[C@H]2O)[C@@H](CC=O)C[C@@H](C)[C@@H](O)/C=C/C=C/C[C@@H](C)OC(=O)C[C@H]1OC(C)=O (some centres undefined) = inactive
• O=C(O)CCCC/C=C(\c1ccccc1)c1cccnc1 = inactive
• Cc1ccc(C(C)(C)c2ccc(C)cc2)cc1 = inactive

====

assay: qHTS assay to identify small molecule antagonists of the estrogen receptor alpha (ER-alpha) signaling pathway - cell viability counter screen (AID 743074); details: ERalpha-bla HEK293 viability, CellTiter-Glo luminescence, 18 h; series mostly up to 69.4 µM;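 also: HEK293 cells carrying ER-alpha-UAS-bla reporter stimulated with 17beta-estradiol; nearly all actives have a fitted effect of over 45% in size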
Inconclusive results are not listed. Activity calls are given as the source filed them. Calls follow the shape of the full dose curve.
Please answer using one outcome listed in yes (1) = active, no (0) = inactive

Record excerpt, results attached:
- CC1=C(/C=C/C(C)=C/C=C/C(C)=C/C=C/C=C(C)/C=C/C=C(C)/C=C/C2=C(C)CCCC2(C)C)C(C)(C)CCC1: no (0)
- O=C1CCC/C=C\CCCCCCCCCC1: no (0)
- CC(=O)OCC(=O)[C@@]1(O)CC[C@H]2[C@@H]3C[C@H](C)C4=CC(=O)C=C[C@]4(C)[C@H]3[C@@H](O)C[C@@]21C: no (0)
- OCl: no (0)
- S=C1NC=NC2N=CNC12 (stereo not drawn): yes (1)
- CC1(C)S[C@@H]2[C@H](N3C(=O)C(c4ccccc4)NC3(C)C)C(=O)N2[C@H]1C(=O)O (stereo partly drawn): no (0)
- OCCCNc1ccccc1: no (0)

Given `C[C@H]1O[C@@H](O[C@H]2CC[C@@]3(C)[C@H](CC[C@@H]4[C@@H]3C[C@@H](O)[C@]3(C)[C@@H](C5=CC(=O)OC5)CC[C@]43O)C2)C[C@H](O)[C@@H]1O[C@H]1C[C@H](O)[C@H](O[C@H]2C[C@H](O)[C@H](O[C@@H]3O[C@H](CO)[C@@H](O)[C@H](O)[C@H]3O)[C@@H](C)O2)[C@@H](C)O1` , state the outcome it received in this test.
yes (1)

Origin of values: PubChem BioAssay (Tox21)
